- system: human Kv1.3 (Homo sapiens, UniProt P22001)
- Construct: expressed in transfected cells; host or cells: stably transfected cells grown in medium for CHO cells
- Sequence (P22001 whole entry): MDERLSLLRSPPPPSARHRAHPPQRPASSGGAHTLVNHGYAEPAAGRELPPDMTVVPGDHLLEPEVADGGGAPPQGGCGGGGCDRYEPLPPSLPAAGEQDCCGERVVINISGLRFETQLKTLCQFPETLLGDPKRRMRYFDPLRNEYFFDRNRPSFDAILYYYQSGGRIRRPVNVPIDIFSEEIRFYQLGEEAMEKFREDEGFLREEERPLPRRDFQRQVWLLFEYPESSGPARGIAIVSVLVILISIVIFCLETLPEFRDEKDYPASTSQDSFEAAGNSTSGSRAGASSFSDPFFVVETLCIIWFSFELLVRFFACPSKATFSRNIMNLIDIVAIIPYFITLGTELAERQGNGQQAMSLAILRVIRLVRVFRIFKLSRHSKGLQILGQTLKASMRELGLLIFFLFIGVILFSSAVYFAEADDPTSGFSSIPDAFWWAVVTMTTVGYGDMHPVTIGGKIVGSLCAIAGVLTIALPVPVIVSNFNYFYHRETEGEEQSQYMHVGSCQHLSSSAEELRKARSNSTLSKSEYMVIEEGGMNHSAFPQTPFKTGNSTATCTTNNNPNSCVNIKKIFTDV
- experiment summary: Kv1.3 Autopatch electrophysiology (whole cell patch-clamp, inhibition of charge movement)
- Format: cell-based
- condition label: compound at 1 μM; cells stably transfected with human Kv1.3; room temperature; total charge during step to +30 mV relative to control; read-out: hKv1.3 % inh.
quantity: inhibition at 1 µM (%)

(A) Cn1cnc(S(=O)(=O)N(Cc2ccccc2)c2ccc(C(=O)N3CCN(CC4CCCCC4)CC3)cc2)c1
(B) O=C(c1ccc(N(Cc2ccc(F)cc2)S(=O)(=O)c2ccccc2)cc1)N1CCN(c2ccccc2)CC1
When A and B are compared, which has the higher number for inhibition at 1 µM? Write the label of whichever entry you select.
B
(B: 93%, A: 45%)

(a) Cc1ccccc1CN(c1ccc(C(=O)N2CCN(c3ccccc3)CC2)cc1)S(=O)(=O)c1ccccc1
(b) CN1CCN(C(=O)c2ccc(N(Cc3ccccc3)S(=O)(=O)c3cn(C)cn3)cc2)CC1
Could you tell me which of a and b has the lower inhibition at 1 µM reading? Field: selected label. Fill in the label of the entry you choose.
b
(b: 38%, a: 85%)
